biological target: UniProt:P51449; assay: RORγ Gal4 Reporter Gene Assay; assay type: cell-based
Sequence (P51449 whole entry, looked up, the tested form may be a part): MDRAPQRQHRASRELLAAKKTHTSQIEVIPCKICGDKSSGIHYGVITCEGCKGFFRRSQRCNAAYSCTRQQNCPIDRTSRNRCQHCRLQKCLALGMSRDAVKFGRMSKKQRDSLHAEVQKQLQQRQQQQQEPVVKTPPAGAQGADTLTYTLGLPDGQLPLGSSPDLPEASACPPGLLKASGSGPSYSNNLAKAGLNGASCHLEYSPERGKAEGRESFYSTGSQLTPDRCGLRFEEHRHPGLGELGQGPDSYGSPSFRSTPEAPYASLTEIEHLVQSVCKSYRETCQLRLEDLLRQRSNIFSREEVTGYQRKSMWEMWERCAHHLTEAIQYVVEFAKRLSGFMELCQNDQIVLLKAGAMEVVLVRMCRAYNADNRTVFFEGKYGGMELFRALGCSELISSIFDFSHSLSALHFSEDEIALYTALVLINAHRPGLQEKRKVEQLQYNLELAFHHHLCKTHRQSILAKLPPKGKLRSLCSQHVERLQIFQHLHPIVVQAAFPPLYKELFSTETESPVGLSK
value-type: pIC50 (FF)

CCCc1nc(C(=O)NC2CCS(=O)(=O)CC2)sc1-c1ccc(S(=O)(=O)NC(C)(C)C)c(Cl)c1Cl : 7.0/7.4/7.5
CC(C)(C)NS(=O)(=O)c1ccc(-c2sc(C(=O)NC34CC(C(=O)O)(C3)C4)nc2CC2CCCCC2)c(Cl)c1Cl : 6.8/7.8/7.9
O=C(c1nc(CC2CCCCC2)c(-c2ccc(S(=O)(=O)NC3CCOCC3)c3ccccc23)s1)N1CC2(CCS(=O)(=O)CC2)C1 : 6.2/7.3/7.4
CC(C)(C)NS(=O)(=O)c1ccc(-c2sc(C(=O)NC3CCS(=O)(=O)CC3)nc2CC2CC2)c(Cl)c1Cl : 7.0/7.5/7.5
CC(C)(C)NS(=O)(=O)c1ccc(-c2sc(C(=O)NCC3(C(N)=O)CCOCC3)nc2CC2CCCCC2)c2ccccc12 : 6.5/8.5/8.7
